Target: P70S6K (Homo sapiens, UniProt P23443)
Sequence (P23443 whole entry): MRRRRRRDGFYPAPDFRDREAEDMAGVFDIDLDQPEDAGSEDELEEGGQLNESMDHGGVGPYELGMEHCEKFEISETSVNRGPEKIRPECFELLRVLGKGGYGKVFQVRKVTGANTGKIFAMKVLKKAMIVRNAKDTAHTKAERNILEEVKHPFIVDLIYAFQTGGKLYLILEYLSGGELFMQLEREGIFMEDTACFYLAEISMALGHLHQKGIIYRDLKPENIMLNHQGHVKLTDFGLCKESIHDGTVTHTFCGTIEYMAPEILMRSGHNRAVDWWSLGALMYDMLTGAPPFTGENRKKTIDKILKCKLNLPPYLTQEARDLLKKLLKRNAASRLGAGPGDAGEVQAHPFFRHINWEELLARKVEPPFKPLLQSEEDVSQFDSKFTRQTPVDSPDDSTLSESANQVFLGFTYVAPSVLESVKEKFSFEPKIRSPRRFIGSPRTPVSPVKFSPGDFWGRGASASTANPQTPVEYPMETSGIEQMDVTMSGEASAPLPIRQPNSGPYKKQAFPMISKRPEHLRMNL
Assay: P70S6K kinase assay
Format: biochemical
Settings: 10 μM compound; read-out: P70S6K percent of inhibition
Experimental: General description of the kinase assays: the kinase activity was assayed in 96-well microtiter plates at a final compound concentration of 10 μM in a total volume of 50 μl. Compounds were dissolved in 100% DMSO to prepare a 10 mM stock solution and than diluted with buffer to reach a 10 μM (or the required) final concentration. The kinase concentration was used to yield 10% ATP turn over. […] The radioactivity was counted on a Microbeta microplate counter.
Each item that follows carries a reported inhibition at 10 µM.
Note: unit % is implicit; provide only the numeric part.

// worked examples, inhibition at 10 µM included
• Oc1cccc(Nc2nc(C3CC3)nc3sc4ccccc4c23)c1 = 3
• COc1cccc(Nc2nc(C3CC3)nc3sc4ccccc4c23)c1 = 9
• Nc1cccc(Nc2nc(C3CC3)nc3sc4c(c23)CCCC4)c1 = 9
• Fc1cccc(Nc2ncnc3sc4c(c23)CCCC4)c1 = -26

Query string: # return recorded inhibition at 10 µM for input Fc1ccc(Nc2ncnc3sc4c(c23)CCCC4)cc1
Result string: -7

----------
The following compounds are listed with their measured inhibition at 10 µM values.
molecular target: EGFR (Homo sapiens, UniProt P00533); assay: EGFR kinase assay (33P-ATP filter plate); type: biochemical; conditions: 10 μM compound; read-out: EGFR percent of inhibition
Sequence (P00533 25-1210): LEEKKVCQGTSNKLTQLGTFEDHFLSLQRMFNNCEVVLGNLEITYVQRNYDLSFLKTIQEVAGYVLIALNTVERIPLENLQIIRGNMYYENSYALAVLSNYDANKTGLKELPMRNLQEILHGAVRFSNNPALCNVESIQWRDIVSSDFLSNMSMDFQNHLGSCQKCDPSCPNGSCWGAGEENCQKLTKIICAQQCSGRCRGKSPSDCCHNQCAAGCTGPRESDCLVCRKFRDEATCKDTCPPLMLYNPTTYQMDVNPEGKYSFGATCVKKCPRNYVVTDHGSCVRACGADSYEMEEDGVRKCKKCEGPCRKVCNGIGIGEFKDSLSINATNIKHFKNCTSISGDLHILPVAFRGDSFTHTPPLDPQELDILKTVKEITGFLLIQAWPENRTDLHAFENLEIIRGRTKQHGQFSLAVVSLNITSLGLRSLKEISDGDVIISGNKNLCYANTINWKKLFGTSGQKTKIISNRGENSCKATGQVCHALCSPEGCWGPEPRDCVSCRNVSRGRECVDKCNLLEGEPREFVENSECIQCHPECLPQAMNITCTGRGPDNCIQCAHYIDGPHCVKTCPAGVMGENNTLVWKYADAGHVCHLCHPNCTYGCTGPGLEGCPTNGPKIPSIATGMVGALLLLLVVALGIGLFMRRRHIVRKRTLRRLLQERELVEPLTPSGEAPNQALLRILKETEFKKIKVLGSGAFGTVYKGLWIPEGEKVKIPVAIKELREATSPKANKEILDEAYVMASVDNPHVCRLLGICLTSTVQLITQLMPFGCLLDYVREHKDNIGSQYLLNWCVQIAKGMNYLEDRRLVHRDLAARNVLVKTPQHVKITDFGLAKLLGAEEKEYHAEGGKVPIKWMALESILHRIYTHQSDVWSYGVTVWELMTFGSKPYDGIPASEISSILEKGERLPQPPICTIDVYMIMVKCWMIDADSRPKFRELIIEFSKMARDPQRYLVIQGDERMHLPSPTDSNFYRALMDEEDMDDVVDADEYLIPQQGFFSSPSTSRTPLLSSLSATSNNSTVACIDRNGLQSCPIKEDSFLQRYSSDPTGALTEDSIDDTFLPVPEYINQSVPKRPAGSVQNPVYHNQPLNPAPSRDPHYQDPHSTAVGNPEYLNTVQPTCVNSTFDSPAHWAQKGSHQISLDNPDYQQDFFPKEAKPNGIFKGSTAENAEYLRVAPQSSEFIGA
Please give a number only; it is taken to be in %.

Would you please look over these solved cases?
- Nc1cccc(Nc2nc(C3CC3)nc3sc4c(c23)CCCC4)c1: 5
- Clc1ccc(Nc2ncnc3sc4c(c23)CCCC4)cc1: 100
- Clc1cccc(Nc2nc(C3CC3)nc3sc4ccccc4c23)c1: 86

Query string: State inhibition at 10 µM (EGFR (Homo sapiens, UniProt P00533)) of COc1cccc(Nc2nc(C3CC3)nc3sc4c(c23)CCCC4)c1 .
Result string: 9

----------
target: IKK-beta (Homo sapiens); assay: IKK-beta kinase assay; type: biochemical; conditions: 10 μM compound; read-out: IKK-beta percent of inhibition
Sequence (O14920 whole entry, species assumed): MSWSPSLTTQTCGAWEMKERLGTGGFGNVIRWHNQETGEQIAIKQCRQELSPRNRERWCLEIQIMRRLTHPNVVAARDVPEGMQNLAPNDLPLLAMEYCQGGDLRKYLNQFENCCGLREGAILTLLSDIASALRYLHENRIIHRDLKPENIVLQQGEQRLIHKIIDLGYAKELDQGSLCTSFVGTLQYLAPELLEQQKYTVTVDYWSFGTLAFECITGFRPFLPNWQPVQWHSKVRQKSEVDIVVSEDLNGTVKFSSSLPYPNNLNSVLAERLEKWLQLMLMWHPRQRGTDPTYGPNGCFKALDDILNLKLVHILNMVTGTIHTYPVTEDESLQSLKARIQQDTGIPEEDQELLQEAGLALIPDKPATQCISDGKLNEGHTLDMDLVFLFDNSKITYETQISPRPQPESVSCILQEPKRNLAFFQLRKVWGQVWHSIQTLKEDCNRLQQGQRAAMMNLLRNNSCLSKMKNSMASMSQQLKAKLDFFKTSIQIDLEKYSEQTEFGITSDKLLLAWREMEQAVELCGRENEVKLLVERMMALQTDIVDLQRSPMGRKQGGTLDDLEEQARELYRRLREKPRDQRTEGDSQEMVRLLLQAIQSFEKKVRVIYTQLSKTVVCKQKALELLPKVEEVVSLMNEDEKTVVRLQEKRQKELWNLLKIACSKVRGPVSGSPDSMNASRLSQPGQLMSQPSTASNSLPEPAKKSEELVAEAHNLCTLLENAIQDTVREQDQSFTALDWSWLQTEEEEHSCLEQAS
Decide by inhibition at 10 µM: equal to or exceeding 4% means T, less means F.

- Oc1cccc(Nc2nc(C3CC3)nc3sc4ccccc4c23)c1: T
- Fc1cccc(Nc2ncnc3sc4ccccc4c23)c1: F

Query string: Does inhibition at 10 µM meet or surpass 4% for Fc1ccc(Nc2ncnc3sc4c(c23)CCCC4)cc1 ?
Result string: T

Query string: Assess whether reported inhibition at 10 µM for COc1cccc(Nc2nc(C3CC3)nc3sc4ccccc4c23)c1 sits at 4% or higher.
Result string: T

----------
target: CK1-alpha (Homo sapiens); test: CK1-alpha kinase assay; format: biochemical; conditions: 10 μM compound; read-out: CK1-alpha percent of inhibition
Sequence (P48729 whole entry): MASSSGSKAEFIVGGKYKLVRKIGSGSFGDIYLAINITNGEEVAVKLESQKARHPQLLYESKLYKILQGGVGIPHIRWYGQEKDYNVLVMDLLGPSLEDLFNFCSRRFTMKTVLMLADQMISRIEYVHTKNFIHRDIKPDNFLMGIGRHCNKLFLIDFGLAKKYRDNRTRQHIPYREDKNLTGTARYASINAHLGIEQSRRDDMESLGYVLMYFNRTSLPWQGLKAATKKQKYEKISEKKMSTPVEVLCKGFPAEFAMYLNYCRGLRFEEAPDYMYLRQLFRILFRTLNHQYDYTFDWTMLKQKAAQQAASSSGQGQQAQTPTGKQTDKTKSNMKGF
Reported inhibition at 10 µM by item:
Hi! Could you send only the number? It should be in %, unit omitted.

Here are 4 compounds together with their reported answers.
- COc1cccc(Nc2nc(C3CC3)nc3sc4ccccc4c23)c1: 3
- COc1cccc(Nc2nc(C3CC3)nc3sc4c(c23)CCCC4)c1: 5
- Fc1ccc(Nc2ncnc3sc4c(c23)CCCC4)cc1: 7
- Fc1cccc(Nc2nc(C3CC3)nc3sc4ccccc4c23)c1: 0

Then this compound:
Query string: Return inhibition at 10 µM for the following compound: Nc1cccc(Nc2nc(C3CC3)nc3sc4c(c23)CCCC4)c1
Result string: -3
